These entries and their values trace back to patent US7652010B2.

The following compounds are listed with their measured melting point values.

> print(dat)
                                   compound  experimental.value
1  Nc1ccc(C#Cc2ccc(OC3CN4CCC3CC4)nn2)cc1 (racemic)       212 to 220 °C
2  C(#Cc1ccc(OC2CN3CCC2CC3)cc1)c1ccccc1.O=C(O)/C=C/C(=O)O (racemic)   126.9 to 127.3 °C
3  Nc1cccc(C#Cc2ccc(OC3CN4CCC3CC4)nn2)c1 (racemic)   152.4 to 158.1 °C
4  CC(=O)Nc1ccc(C#Cc2ccc(OC3CN4CCC3CC4)nn2)cc1 (racemic)   169.5 to 175.4 °C

As a next step, examine the compound that follows.
Qu. # get_value(readout='melting point', item= C(#Cc1ccc(OC2CN3CCC2CC3)nn1)c1ccsc1.O=C(O)/C=C/C(=O)O (racemic) )
Ans. 133.9 to 141.6 °C
